Tested on: MGC-803
Assay Details: Antiproliferative activity against human MGC803 cells after 48 hrs by MTT assay
Format: functional, cell-based
Particulars: MGC-803, 48 h
Assay Metric: IC50 (µM)

These solved cases illustrate the format of a correct answer.
Compound | IC50 / µM
O=C(N[C@@H](Cc1ccccc1)C(=O)N[C@H](COC(=O)c1ccc(Cl)cc1)Cc1ccccc1)OCc1ccccc1 | 38.4
COc1ccc(C(=O)OC[C@H](Cc2ccccc2)NC(=O)[C@H](CC(=O)OCc2ccccc2)NC(=O)OCc2ccccc2)cc1OC | 42.3
O=C(C[C@H](NC(=O)OCc1ccccc1)C(=O)N[C@H](COC(=O)c1ccccc1)Cc1ccccc1)OCc1ccccc1 | 32.5
CC[C@@]1(O)C(=O)OCc2c1cc1n(c2=O)Cc2cc3ccccc3nc2-1 | 9.45
COc1ccc(C(=O)OC[C@H](Cc2ccccc2)NC(=O)[C@H](Cc2ccccc2)NC(=O)OCc2ccccc2)cc1OC | 40.3

I: O=C(C[C@H](NC(=O)OCc1ccccc1)C(=O)N[C@H](COC(=O)c1ccc(Cl)cc1)Cc1ccccc1)OCc1ccccc1
II: Cc1ccccc1C(=O)OC[C@H](Cc1ccccc1)NC(=O)[C@H](Cc1ccccc1)NC(=O)OCc1ccccc1
Exercise: Between these two entries, I and II , state which has the higher IC50. Indicate your choice by writing its label.
Solution: II
(II: 42.8 µM, I: 28.1 µM)

1: COc1cc([C@@H]2c3cc4c(cc3[C@@H](O[C@@H]3O[C@@H]5CO[C@@H](C)O[C@H]5[C@H](O)[C@H]3O)[C@H]3COC(=O)[C@H]23)OCO4)cc(OC)c1O [ETOPOSIDE]
2: O=C(N[C@@H](Cc1ccccc1)C(=O)N[C@H](COC(=O)c1ccccc1)Cc1ccccc1)OCc1ccccc1
Exercise: Lower value of IC50 belongs to which: 1 or 2 ? Indicate your choice by writing its label.
Solution: 1
(1: 20.9 µM, 2: 38.7 µM)
